- Tested on: normal rats
- assay-procedure: Effect on blood pressure of normal rats by single oral administration
- Assay type: in vivo, Wistar rats
- condition: Rattus norvegicus, po; 2.0 mg/kg p.o., single, normal rats; read-out: variations on heart rate
Below, each of the compounds is paired with its reported change in vivo at 2 mg/kg value.
property-label: change in vivo at 2 mg/kg

INSERT INTO results (compound, target_system, endpoint_value) VALUES
  ('CCOc1nc2cccc(C(=O)OCOC(=O)OCc3no[n+]([O-])c3C)c2n1Cc1ccc(-c2ccccc2-c2noc(=O)[nH]2)cc1 [QR01020]', 'normal rats', '3%'),
  ('CCOc1nc2cccc(C(=O)OCc3no[n+]([O-])c3C)c2n1Cc1ccc(-c2ccccc2-c2noc(=O)[nH]2)cc1 [QR01023]', 'normal rats', '-3%'),
  ('CCOc1nc2cccc(C(=O)OCCCCOc3no[n+]([O-])c3S(=O)(=O)c3ccccc3)c2n1Cc1ccc(-c2ccccc2-c2noc(=O)[nH]2)cc1 [QR01011]', 'normal rats', '-5%');
